Listed below: Kd values for each entry.
assayed_system: recombinant human transferrin receptor (TfR) protein (human, UniProt P02786 101-760)
Sequence (P02786 101-760): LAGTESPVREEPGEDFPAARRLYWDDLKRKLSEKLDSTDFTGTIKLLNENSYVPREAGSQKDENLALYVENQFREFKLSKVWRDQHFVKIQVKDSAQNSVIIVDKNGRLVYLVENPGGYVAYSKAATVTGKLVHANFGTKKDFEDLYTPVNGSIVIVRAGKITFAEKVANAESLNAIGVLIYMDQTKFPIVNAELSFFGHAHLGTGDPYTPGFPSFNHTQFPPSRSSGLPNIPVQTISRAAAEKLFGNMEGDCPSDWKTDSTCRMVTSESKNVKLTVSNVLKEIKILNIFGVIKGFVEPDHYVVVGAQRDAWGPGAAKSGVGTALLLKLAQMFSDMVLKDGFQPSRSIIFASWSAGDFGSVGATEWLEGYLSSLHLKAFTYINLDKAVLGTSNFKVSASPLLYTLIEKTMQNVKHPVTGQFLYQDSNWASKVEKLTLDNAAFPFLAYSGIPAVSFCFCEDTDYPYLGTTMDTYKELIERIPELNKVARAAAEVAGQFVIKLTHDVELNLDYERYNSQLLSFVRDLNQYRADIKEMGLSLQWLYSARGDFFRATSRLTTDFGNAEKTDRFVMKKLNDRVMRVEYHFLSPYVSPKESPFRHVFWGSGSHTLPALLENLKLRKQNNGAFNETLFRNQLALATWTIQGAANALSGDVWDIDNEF
experiment: SPR
Ends that are not written are not given here.
Your answer is read as µM, so omit the unit and give the number.

>>> obs_value("GYRPVHNIRGHWAPGK-NH2 [GYR (peptide 2)]")
171

Lab note: next binder to report on.
Q) Consider the binder shown here: FRCLVENRGDVPFVTRIR-NH2 [MTfp (peptide 1), peptide derived from melanotransferrin] What is its recorded Kd?
A) 0.507

Data origin: paper PMC8018780
